Values compiled from ChEMBL document CHEMBL5154923.

Assay: Cytotoxicity against human HEK293T cells assessed as increase in total apoptotic cells incubated for 36 hrs by Annexin V staining based method
Assay type: toxicity, cell-based, HEK-293T
As shown below, each of these compounds has a reported EC50 at 36 h value.

{"MOL_SMILES": "CC(C)(C)NC(=O)c1ccc2cc1OCCOCCNc1ccn3ncc-2c3n1", "EC50 at 36 h": "> 10 µM"}

Lab note: measured EC50 at 36 h of "C[C@H](NC(=O)c1ccc2cc1OCCOCCNc1ccn3ncc-2c3n1)c1ccncc1" was > 10 µM

====

Biological target: Serine/threonine-protein kinase 17A (Homo sapiens)
Sequence (Q9UEE5 whole entry, the tested form may be a part): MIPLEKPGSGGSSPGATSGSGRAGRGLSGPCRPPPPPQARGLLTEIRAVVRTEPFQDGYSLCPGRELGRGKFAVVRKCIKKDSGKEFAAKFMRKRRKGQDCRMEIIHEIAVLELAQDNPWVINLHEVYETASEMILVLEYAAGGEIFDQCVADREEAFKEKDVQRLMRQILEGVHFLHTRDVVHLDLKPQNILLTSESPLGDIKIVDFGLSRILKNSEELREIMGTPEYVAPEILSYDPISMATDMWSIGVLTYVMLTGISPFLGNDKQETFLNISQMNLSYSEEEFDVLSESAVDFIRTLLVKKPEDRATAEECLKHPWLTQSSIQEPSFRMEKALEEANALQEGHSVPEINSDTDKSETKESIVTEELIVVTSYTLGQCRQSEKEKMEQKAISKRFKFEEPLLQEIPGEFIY
Test: Inhibition of human N-terminal His-tagged/ TEV cleavage fused DRAK1 (39 to 369 residues) transfected in HEK293T cells using NanoBRET NanoGlo as substrate incubated for 2 hrs by NanoBRET assay
Assay type: cell-based
MEASURE_NAME: IC50 (nM)
Hi! Could you send only the number? It should be in nM, unit omitted.

Example results:
{"MOLECULE": "O=C(NCc1ccccc1)c1ccc2cc1OCCOCCNc1ccn3ncc-2c3n1", "TARGET_UNDER_TEST": "Serine/threonine-protein kinase 17A (Homo sapiens)", "ENDPOINT_UNIT": "nM", "IC50": 171}
{"MOLECULE": "CC(C)(C)NC(=O)c1ccc2cc1OCCOCCNc1ccn3ncc-2c3n1", "TARGET_UNDER_TEST": "Serine/threonine-protein kinase 17A (Homo sapiens)", "ENDPOINT_UNIT": "nM", "IC50": 182}
{"MOLECULE": "CC(NC(=O)c1ccc2cc1OCCOCCNc1ccn3ncc-2c3n1)c1ccccc1 (stereo unspecified)", "TARGET_UNDER_TEST": "Serine/threonine-protein kinase 17A (Homo sapiens)", "ENDPOINT_UNIT": "nM", "IC50": 71}

Turning to the following molecule.
Lab note: measured IC50 of "C[C@H](NC(=O)c1ccc2cc1OCCOCCNc1ccn3ncc-2c3n1)c1ccncc1" was 70
